target: hα9α10 nAChRs (Homo sapiens, UniProt Q9GZZ6+Q9UGM1); construct: host or cells: Xenopus laevis oocytes, cRNA-injected (α9:α10 cRNA ratio 1:1); experiment: Two-electrode voltage clamp, inhibition of ACh-evoked currents at hα9α10 nAChRs expressed in Xenopus laevis oocytes; assay type: cell-based
Sequence (Q9UGM1 26-479 limits assumed): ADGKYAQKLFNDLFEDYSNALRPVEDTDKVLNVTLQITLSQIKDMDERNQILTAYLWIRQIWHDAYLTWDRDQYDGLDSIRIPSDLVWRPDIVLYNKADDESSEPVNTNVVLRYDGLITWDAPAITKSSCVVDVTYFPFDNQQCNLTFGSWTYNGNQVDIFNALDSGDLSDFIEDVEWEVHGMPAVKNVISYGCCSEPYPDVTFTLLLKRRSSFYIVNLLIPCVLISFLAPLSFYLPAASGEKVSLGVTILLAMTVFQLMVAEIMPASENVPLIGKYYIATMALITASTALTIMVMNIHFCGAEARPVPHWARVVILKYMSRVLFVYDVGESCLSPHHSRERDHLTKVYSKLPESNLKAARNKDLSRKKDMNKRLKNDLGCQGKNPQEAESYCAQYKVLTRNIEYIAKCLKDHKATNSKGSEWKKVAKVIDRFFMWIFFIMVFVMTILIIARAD
Sequence (Q9GZZ6 25-450): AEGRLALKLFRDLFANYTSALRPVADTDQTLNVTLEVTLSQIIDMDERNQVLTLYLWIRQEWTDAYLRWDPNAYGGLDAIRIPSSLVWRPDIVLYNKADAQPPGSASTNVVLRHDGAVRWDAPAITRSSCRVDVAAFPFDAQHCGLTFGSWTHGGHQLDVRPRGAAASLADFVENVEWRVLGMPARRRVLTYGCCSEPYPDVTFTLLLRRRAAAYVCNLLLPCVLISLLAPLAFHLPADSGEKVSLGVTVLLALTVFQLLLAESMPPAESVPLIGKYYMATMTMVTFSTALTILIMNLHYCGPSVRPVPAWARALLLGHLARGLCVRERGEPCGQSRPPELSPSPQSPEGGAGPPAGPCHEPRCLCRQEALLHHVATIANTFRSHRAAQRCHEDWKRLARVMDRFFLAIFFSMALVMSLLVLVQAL
IC50 ratio to Cpd 1 listing for selected molecules.
Give the figure only, with no unit attached.

# input Indicate its recorded IC50 ratio to Cpd 1; the molecule in question is C[N+](C)(CCOc1ccc(/C=C/c2ccccc2)cc1)C1CCCC1.[I-]
# output 0.4

# input Indicate its recorded IC50 ratio to Cpd 1; the molecule in question is C[N+](C)(CCOc1ccc(CCc2ccccc2)cc1)C1CCCCC1.[I-]
# output 2.8

# input Indicate its recorded IC50 ratio to Cpd 1; the molecule in question is C[N+](C)(CCOc1ccc(COc2ccccc2)cc1)C1CCCCC1.[I-]
# output 0.3

# input Indicate its recorded IC50 ratio to Cpd 1; the molecule in question is C[N+](CCOc1ccc(/C=C/c2ccccc2)cc1)(C1CCCC1)C1CCCC1.[I-]
# output 6.3

# input Indicate its recorded IC50 ratio to Cpd 1; the molecule in question is C[N+](C)(CCOc1ccc(/C=C/c2ccccc2)cc1)Cc1ccccc1.[Br-]
# output 2.1

// below: IC50 ratio to Cpd 1 requested for another molecule
# input Indicate its recorded IC50 ratio to Cpd 1; the molecule in question is CC[N+](CC)(CC)CCOc1ccc(OCc2ccccc2)cc1
# output 3.4

###

molecular target: UniProt P36544; assay: Two-electrode voltage clamp, inhibition of ACh-evoked currents at hα7 nAChRs in Xenopus laevis oocytes; settings: 100 μM ACh, 5 min preincubation
Sequence (P36544 23-502): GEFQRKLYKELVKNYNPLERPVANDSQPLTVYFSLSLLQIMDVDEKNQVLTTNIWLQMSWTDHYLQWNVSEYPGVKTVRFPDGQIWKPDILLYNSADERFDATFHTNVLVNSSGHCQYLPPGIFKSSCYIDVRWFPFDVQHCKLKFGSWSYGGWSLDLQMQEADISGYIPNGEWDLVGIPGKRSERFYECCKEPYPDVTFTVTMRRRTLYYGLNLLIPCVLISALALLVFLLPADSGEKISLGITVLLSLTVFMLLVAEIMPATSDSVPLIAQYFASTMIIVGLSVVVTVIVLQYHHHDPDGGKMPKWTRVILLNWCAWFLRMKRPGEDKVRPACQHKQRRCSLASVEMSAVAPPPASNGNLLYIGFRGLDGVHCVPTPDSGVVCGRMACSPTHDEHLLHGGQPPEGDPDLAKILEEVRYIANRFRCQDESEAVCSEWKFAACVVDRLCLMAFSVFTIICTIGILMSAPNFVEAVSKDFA
measured.endpoint: pIC50
The scale used: pIC50 is minus the common logarithm of the concentration in molar units.

Some entries whose results are on file:
# input Indicate its recorded pIC50; the compound in question is C[N+](C)(CCOc1ccc(COc2ccccc2)cc1)C1CCCCC1.[I-]
# output 6.47

# input Indicate its recorded pIC50; the compound in question is C[N+](C)(CCOc1ccc(OCc2ccccc2)cc1)C1CCCCC1.[I-]
# output 6.38

// below: pIC50 requested for another compound
# input Indicate its recorded pIC50; the compound in question is C[N+](C)(CCOc1ccc(CCc2ccccc2)cc1)C1CCCCC1.[I-]
# output 6.36

###

molecular target: hα9α10 nAChRs (Homo sapiens, UniProt Q9GZZ6+Q9UGM1); construct: host or cells: Xenopus laevis oocytes, cRNA-injected (α9:α10 cRNA ratio 1:1); assay: Two-electrode voltage clamp, compound-evoked currents (compound applied alone) at hα9α10 nAChRs in Xenopus laevis oocytes; format: cell-based; conditions: compound applied alone (300 pM to 30 μM), normalized to response at highest concentration, read-out: EC50
measured.endpoint: log10 of EC50 (log10 of the value in nM)
# values: log10(EC50), units nM

# input Indicate its recorded log10 of EC50; the compound in question is CC[N+](CC)(CC)CCOc1ccc(C#Cc2ccccc2)cc1
# output 2.74

# input Indicate its recorded log10 of EC50; the compound in question is C[N+](CCOc1ccc(/C=C/c2ccccc2)cc1)(C1CCCC1)C1CCCC1.[I-]
# output 3.23

###

target: hα9α10 nAChRs (Homo sapiens, UniProt Q9GZZ6+Q9UGM1); construct: host or cells: Xenopus laevis oocytes, cRNA-injected (α9:α10 cRNA ratio 1:1); test: Two-electrode voltage clamp, inhibition of ACh-evoked currents at hα9α10 nAChRs expressed in Xenopus laevis oocytes; format: cell-based; conditions: 6 μM ACh, 5 min preincubation with compound, holding potential −80 mV
measured.endpoint: pIC50
The scale used: pIC50 is minus the common logarithm of the concentration in molar units.

# input Indicate its recorded pIC50; the molecule in question is C[N+](C)(CCOc1ccc(OCc2ccccc2)cc1)C1CCCCC1.[I-]
# output 7.41

# input Indicate its recorded pIC50; the molecule in question is CC[N+](CC)(CC)CCOc1ccc(OCc2ccccc2)cc1
# output 6.68

# input Indicate its recorded pIC50; the molecule in question is C[N+](CCOc1ccc(/C=C/c2ccccc2)cc1)(Cc1ccccc1)Cc1ccccc1
# output 5.96

# input Indicate its recorded pIC50; the molecule in question is CC[N+](CC)(CC)CCOc1ccc(C#Cc2ccccc2)cc1
# output 7.05

# input Indicate its recorded pIC50; the molecule in question is CC[N+](CC)(CC)CCOc1ccc(COc2ccccc2)cc1
# output 6.86

Further cases:
# input Indicate its recorded pIC50; the molecule in question is C[N+](C)(CCOc1ccc(/C=C/c2ccccc2)cc1)C1CCCCCC1.[I-]
# output 6.90

# input Indicate its recorded pIC50; the molecule in question is C[N+](CCOc1ccc(/C=C/c2ccccc2)cc1)(C1CCCC1)C1CCCC1.[I-]
# output 6.42

# input Indicate its recorded pIC50; the molecule in question is C[N+](C)(CCOc1ccc(/C=C/c2ccccc2)cc1)Cc1ccccc1.[Br-]
# output 6.91

# input Indicate its recorded pIC50; the molecule in question is C[N+](C)(CCOc1ccc(/C=C/c2ccccc2)cc1)C1CCCC1.[I-]
# output 7.66

# input Indicate its recorded pIC50; the molecule in question is C[N+](C)(CCOc1ccc(COc2ccccc2)cc1)C1CCCCC1.[I-]
# output 7.80

# input Indicate its recorded pIC50; the molecule in question is C[N+](C)(CCOc1ccc(CCc2ccccc2)cc1)C1CCCCC1.[I-]
# output 6.78

# input Indicate its recorded pIC50; the molecule in question is C[N+](C)(CCOc1ccc(/C=C/c2ccccc2)cc1)C1CCOCC1.[I-]
# output 7.26

# input Indicate its recorded pIC50; the molecule in question is C[N+](C)(CCCCOc1ccc(/C=C/c2ccccc2)cc1)C1CCCCC1.[I-]
# output 6.91

# input Indicate its recorded pIC50; the molecule in question is CC[N+](CC)(CC)CCOc1ccc(-c2ccccc2)cc1
# output 6.93

# input Indicate its recorded pIC50; the molecule in question is CC[N+](CC)(CC)CCOc1ccc(CCc2ccccc2)cc1
# output 6.72

# input Indicate its recorded pIC50; the molecule in question is C[N+](C)(CCOc1ccc(/C=C/c2ccccc2)cc1)c1ccccc1.[I-]
# output 7.02

# input Indicate its recorded pIC50; the molecule in question is C[N+](C)(CCCOc1ccc(/C=C/c2ccccc2)cc1)C1CCCCC1.[I-]
# output 7.00

###

molecular target: hα9α10 nAChRs (Homo sapiens, UniProt Q9GZZ6+Q9UGM1); construct: host or cells: Xenopus laevis oocytes, cRNA-injected (α9:α10 cRNA ratio 1:1); assay: Two-electrode voltage clamp, compound-evoked currents (compound applied alone) at hα9α10 nAChRs in Xenopus laevis oocytes; format: cell-based; settings: compound applied alone
Classify as follows. Reported n H (Hill coefficient of activation) greater than or equal to 3: rule met. Reported n H (Hill coefficient of activation) below: rule not met.

# input Does C[N+](C)(CCOc1ccc(/C=C/c2ccccc2)cc1)Cc1ccccc1.[Br-] have a reported n H (Hill coefficient of activation) of at least 3?
# output rule not met

# input Does CC[N+](CC)(CC)CCOc1ccc(OCc2ccccc2)cc1 have a reported n H (Hill coefficient of activation) of at least 3?
# output rule not met

# input Does CC[N+](CC)(CC)CCOc1ccc(-c2ccccc2)cc1 have a reported n H (Hill coefficient of activation) of at least 3?
# output rule met

Further cases:
# input Does C[N+](C)(CCOc1ccc(/C=C/c2ccccc2)cc1)C1CCCC1.[I-] have a reported n H (Hill coefficient of activation) of at least 3?
# output rule not met

# input Does C[N+](C)(CCOc1ccc(/C=C/c2ccccc2)cc1)c1ccccc1.[I-] have a reported n H (Hill coefficient of activation) of at least 3?
# output rule met

###

target: hα9α10 nAChRs (Homo sapiens, UniProt Q9GZZ6+Q9UGM1); construct: host or cells: Xenopus laevis oocytes, cRNA-injected (α9:α10 cRNA ratio 1:1); test: Two-electrode voltage clamp, compound-evoked currents (compound applied alone) at hα9α10 nAChRs in Xenopus laevis oocytes; assay type: cell-based
measured.endpoint: EC50 ratio to Cpd 1
Give the figure only, with no unit attached.

Some entries whose results are on file:
# input Indicate its recorded EC50 ratio to Cpd 1; the molecule in question is C[N+](C)(CCCCOc1ccc(/C=C/c2ccccc2)cc1)C1CCCCC1.[I-]
# output 3.8

# input Indicate its recorded EC50 ratio to Cpd 1; the molecule in question is C[N+](CCOc1ccc(/C=C/c2ccccc2)cc1)(C1CCCC1)C1CCCC1.[I-]
# output 4.4

# input Indicate its recorded EC50 ratio to Cpd 1; the molecule in question is C[N+](C)(CCOc1ccc(CCc2ccccc2)cc1)C1CCCCC1.[I-]
# output 1.3

# input Indicate its recorded EC50 ratio to Cpd 1; the molecule in question is CC[N+](CC)(CC)CCOc1ccc(-c2ccccc2)cc1
# output 1.2

Further cases:
# input Indicate its recorded EC50 ratio to Cpd 1; the molecule in question is C[N+](C)(CCOc1ccc(OCc2ccccc2)cc1)C1CCCCC1.[I-]
# output 0.9
